B1: POU domain, class 2, transcription factor 1, residues 285 to 354; numbered along this chain, P14859 (parent)
chain: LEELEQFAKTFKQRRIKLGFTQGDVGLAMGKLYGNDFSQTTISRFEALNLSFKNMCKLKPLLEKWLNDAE

# Variants of: B1
# protocol.summary: abundance fitness (aPCA) (normalised: wild type 0, dead -1); higher = more abundant; growth selection in yeast, the domain comes from the species named
# condition.label: Homo sapiens
Entry flag: label 1 if abundance fitness reaches -0.1; label 0 if it does not.

Check the entry `N54I` : does abundance fitness equal or exceed -0.1? label 1

Check the entry `E46V` : does abundance fitness equal or exceed -0.1? label 0

Check the entry `G26A` : does abundance fitness equal or exceed -0.1? label 1

Check the entry `N54Y` : does abundance fitness equal or exceed -0.1? label 1

Check the entry `M29K` : does abundance fitness equal or exceed -0.1? label 0

Check the entry `E63P` : does abundance fitness equal or exceed -0.1? label 0

Check the entry `I42A` : does abundance fitness equal or exceed -0.1? label 0

Check the entry `K12N` : does abundance fitness equal or exceed -0.1? label 0

Check the entry `Y33F` : does abundance fitness equal or exceed -0.1? label 1

Check the entry `I42M` : does abundance fitness equal or exceed -0.1? label 0

Check the entry `W65I` : does abundance fitness equal or exceed -0.1? label 0

Check the entry `G19S` : does abundance fitness equal or exceed -0.1? label 0

Check the entry `L66I` : does abundance fitness equal or exceed -0.1? label 1

Check the entry `R44M` : does abundance fitness equal or exceed -0.1? label 1

Check the entry `Q13R` : does abundance fitness equal or exceed -0.1? label 1

Check the entry `F45T` : does abundance fitness equal or exceed -0.1? label 0

Check the entry `T40I` : does abundance fitness equal or exceed -0.1? label 0

Check the entry `T21L` : does abundance fitness equal or exceed -0.1? label 0

Check the entry `A28S` : does abundance fitness equal or exceed -0.1? label 1

Check the entry `L48R` : does abundance fitness equal or exceed -0.1? label 1

Check the entry `E5P` : does abundance fitness equal or exceed -0.1? label 0

Check the entry `K57M` : does abundance fitness equal or exceed -0.1? label 1

Check the entry `L58P` : does abundance fitness equal or exceed -0.1? label 0

Check the entry `D36I` : does abundance fitness equal or exceed -0.1? label 1

Check the entry `F37L` : does abundance fitness equal or exceed -0.1? label 1

Check the entry `K12T` : does abundance fitness equal or exceed -0.1? label 1

Check the entry `F37I` : does abundance fitness equal or exceed -0.1? label 1

Check the entry `S51C` : does abundance fitness equal or exceed -0.1? label 1

Check the entry `L32T` : does abundance fitness equal or exceed -0.1? label 1

Check the entry `E2Q` : does abundance fitness equal or exceed -0.1? label 1

Check the entry `L50T` : does abundance fitness equal or exceed -0.1? label 1

Check the entry `L66T` : does abundance fitness equal or exceed -0.1? label 0

Check the entry `F52P` : does abundance fitness equal or exceed -0.1? label 0

Check the entry `K31H` : does abundance fitness equal or exceed -0.1? label 1

Check the entry `K57E` : does abundance fitness equal or exceed -0.1? label 1

Check the entry `L32S` : does abundance fitness equal or exceed -0.1? label 0

Check the entry `R14M` : does abundance fitness equal or exceed -0.1? label 1

Check the entry `Q39T` : does abundance fitness equal or exceed -0.1? label 1

Check the entry `Q13T` : does abundance fitness equal or exceed -0.1? label 1

Check the entry `Q22N` : does abundance fitness equal or exceed -0.1? label 0

Check the entry `L66M` : does abundance fitness equal or exceed -0.1? label 1

Check the entry `E2R` : does abundance fitness equal or exceed -0.1? label 1

Check the entry `L18G` : does abundance fitness equal or exceed -0.1? label 0

Check the entry `F7V` : does abundance fitness equal or exceed -0.1? label 1

Check the entry `L61V` : does abundance fitness equal or exceed -0.1? label 1

Check the entry `K57L` : does abundance fitness equal or exceed -0.1? label 1
